testTarget: T1, human claudin 6 (CLDN6) (human, UniProt P56747 1-220)
T1 construct: also called human CLDN6; hCLDN6
T1 sequence: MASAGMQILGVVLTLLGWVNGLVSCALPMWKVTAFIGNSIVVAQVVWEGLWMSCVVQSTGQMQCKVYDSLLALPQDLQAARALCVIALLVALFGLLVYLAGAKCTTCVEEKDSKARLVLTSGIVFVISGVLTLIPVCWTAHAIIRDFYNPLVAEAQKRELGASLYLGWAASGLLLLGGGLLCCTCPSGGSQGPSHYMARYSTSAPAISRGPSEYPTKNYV
protocolNotes: FACS, PA-1 cells (endogenous CLDN6)
propertyLabel: Top MFI Mean
Remember to quote the unit after the number.

Consider the reported Top MFI Mean for these binders:
Value of Top MFI Mean reported for the binder BG87P-27 (antibody, V domains shown) VH: QVQLVQSGAEVKKPGASVKVSCKASGYSFTDYHINWVRQAPGQRLEWMGWIYPGSGYTKYNEKFKGRVTLTRDTSASTAYMELSSLRSEDTAVYFCARSGIYHYVSSYYFDHWGKGTTVTVSS VL: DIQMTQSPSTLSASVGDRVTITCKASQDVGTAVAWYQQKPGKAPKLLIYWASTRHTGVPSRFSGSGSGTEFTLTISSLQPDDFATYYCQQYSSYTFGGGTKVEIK is 66700 MFI

Value of Top MFI Mean reported for the binder BG87P-25 (antibody, V domains shown) VH: QIQLVQSGAEVKKPGASVKVSCKASGYSFTDYHINWVRQAPGQRLEWMGWIYPGSGYTKYNEKFKGRVTLTRDTSASTAYMELSSLRSEDTAVYYCARSGIYHYVSSYYFDHWGKGTTVTVSS VL: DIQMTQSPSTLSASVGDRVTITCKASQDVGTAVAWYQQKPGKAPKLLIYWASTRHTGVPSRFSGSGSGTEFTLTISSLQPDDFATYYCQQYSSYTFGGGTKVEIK is 73700 MFI

Value of Top MFI Mean reported for the binder BG87P-23 (antibody, V domains shown) VH: QIQLVQSGAEVKKPGASVKVSCKASGYSFTDYHINWVRQAPGQRLEWMGWIYPGSGYTKYNEKFKGRVTITRDTSASTAYMELSSLRSEDTAVYYCARSGIYHYVSSYYFDHWGKGTTVTVSS VL: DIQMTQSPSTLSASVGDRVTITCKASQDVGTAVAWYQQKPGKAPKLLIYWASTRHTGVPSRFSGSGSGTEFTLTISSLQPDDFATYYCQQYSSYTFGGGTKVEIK is 72500 MFI

Okay, now this binder:
Value of Top MFI Mean reported for the binder chimeric BG87P antibody (chBG87P) (antibody, V domains shown) VH: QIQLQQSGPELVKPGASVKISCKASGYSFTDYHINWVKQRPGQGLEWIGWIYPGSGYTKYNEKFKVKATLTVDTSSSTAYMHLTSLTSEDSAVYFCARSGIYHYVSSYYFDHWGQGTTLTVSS VL: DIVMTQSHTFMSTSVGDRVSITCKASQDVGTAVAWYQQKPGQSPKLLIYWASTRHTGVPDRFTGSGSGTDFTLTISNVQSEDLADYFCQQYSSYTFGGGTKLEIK is 125000 MFI

All values here come from patent US20240301062A1.
